Please respond with reported growth inhibition for every item in the list.
Assay: NCI Yeast Anticancer Drug Screen. Data for the bub3 strain (AID 167)
Conditions: S. cerevisiae bub3 mutant strain, at 50.0 µM, active compounds read high
Procedure: Growth inhibition of yeast strains with defined genetic alterations is measured as a screen for potential anti-cancer activity. Selected strains with alterations in DNA damage repair or cell cycle control were exposed to compounds and growth inhibition was measured relative to vehicle treated controls. The strain used in this assay is bub3
Compounds without any hit were thinned out: in the full panel of roughly 79,000, 15% have a hit.
Answer with a number only, understood to be in %.

Ask | So what's the measured growth inhibition for this one? "C=C(C)[N+]([O-])=NC"
Reply | -10.8

Ask | Same thing, different compound: N=C1N=Nc2nc(C(C(=O)c3cccs3)c3nc4n(c3O)C(=N)N=N4)c(O)n21 (stereo unspecified)
Reply | 1.7

Ask | Same thing, different compound: "CC(=O)Nc1ccc(/C=N/Nc2c3ccccc3nc3ccccc23)cc1"
Reply | 6.75

Ask | Same thing, different compound: "CN(C)c1cccc(/C=C(\C#N)c2ccccc2)c1"
Reply | 54.1

Ask | Same thing, different compound: "NCCN.O=C([O-])CN1CCOCC1.[OH-].[Pt+4]"
Reply | -13.7

Ask | Same thing, different compound: COc1cc(C2C3=C(COC3=O)OC(C)(C)Oc3cc4c(cc32)OCO4)cc(OC)c1O (stereo unspecified)
Reply | -27.1

====

Assay: NCI Yeast Anticancer Drug Screen. Data for the mec2-1 strain (AID 157)
Details: S. cerevisiae mec2-1 strain, at 50.0 µM, active compounds read high
Compounds without any hit were thinned out: in the full panel of roughly 79,000, 15% have a hit.
Please respond with reported growth inhibition for every item in the list.
Answer with a number only, understood to be in %.

Ask | So what's the measured growth inhibition for this one? "O=[N+]([O-])c1cccc2cnccc12"
Reply | 22.4

Ask | Same thing, different molecule: O=C(c1ccccc1)C(c1ccccc1)C1(O)C(=O)Nc2c(Cl)ccc(Cl)c21 (configuration not stated)
Reply | 10.6

Ask | Same thing, different molecule: C#C/C=C/CC1OC(C(Br)CC)CC(Br)C2CC1O2 (configuration not stated)
Reply | 16.8

Ask | Same thing, different molecule: "CCOC(=O)c1[nH]c(COC(C)=O)c2c1CCCCCCCCCC2"
Reply | -9.75

Ask | Same thing, different molecule: "Cc1nn(C(N)=S)c(C)c1N=Nc1ccc(O)cc1"
Reply | -4.2

Ask | Same thing, different molecule: "CCOC(=O)C(NC(=O)NC(C(=O)OCC)C(=O)OCC)C(=O)OCC"
Reply | -20.6

Ask | Same thing, different molecule: "NC(N)=N/N=C/c1c(Cl)nc2n1CCS2"
Reply | -32.2

Ask | Same thing, different molecule: "CC(=O)Nc1ccc(NC(=O)Nc2cccc(C(C)=O)c2)cc1"
Reply | 27.2

Ask | Same thing, different molecule: "Cc1ccc2c(c1)c(C)c(C)c(=O)n2C"
Reply | -8.7

Ask | Same thing, different molecule: "N#Cc1nc(-c2ccco2)oc1N"
Reply | 1.85

Ask | Same thing, different molecule: "CC1(C)O[C@H]2[C@H](O)C[C@](O)(CO)C[C@H]2O1"
Reply | 3.85

Ask | Same thing, different molecule: "C[Si](C)(C)C#C[I+]c1ccccc1"
Reply | -24.4
